Assay: cross-inhibition, in situ perfusion: [^3H]-arginine with 0.5–500 μM unlabelled ADMA
Format: in vivo, mouse
Settings: male, Balb/c, mouse, hypothalamus, other: in situ brain perfusion, with unlabelled ADMA 3 µM, Arginine / Sucrose uptake, hypothalamus, mean, [3H] Arginine + [14C] Sucrose + 3 uM ADMA, 10 mins, Balb/c ♂, 5ml/min; mean
Measure: Kp at 10 min

query: Looking for the measured Kp at 10 min of OC[C@H]1O[C@@](CO)(O[C@H]2O[C@H](CO)[C@@H](O)[C@H](O)[C@H]2O)[C@@H](O)[C@@H]1O [[^14C]-sucrose, reference compound] , can you help?
result: 0.0456
